- assay: Cytotoxicity against BAECs assessed as decrease in total intracellular LDH content at 15 mM measured after 3 hrs by LDH assay relative to vehicle control
- Type: cell-based, Bos taurus
- Design: scale not given: the % may be the effect or the level left
- measurement_setup: cattle, baec, 15000 µM
Each record here notes measured Activity.
All answers are understood in %, so give the number only.

Here is how some compounds turned out for Activity.
>  <smiles_text>
CCOP(=O)(OCC)C(C)(C)/[N+]([O-])=C/c1ccc([N+](=O)[O-])cc1

>  <Activity [%]>
53

$$$$
>  <smiles_text>
CCOP(=O)(OCC)C(C)(C)/[N+]([O-])=C/c1cc(OC)c(O)c(OC)c1

>  <Activity [%]>
8

$$$$
>  <smiles_text>
CCOP(=O)(OCC)C(C)(C)/[N+]([O-])=C/c1ccc(O)c(OC)c1

>  <Activity [%]>
23

$$$$

Q: Which value of Activity has been reported for "CCOP(=O)(OCC)C(C)(C)/[N+]([O-])=C/c1ccccc1O" in the records?
A: 21

Q: What do you have for "CCOP(=O)(OCC)C(C)(C)/[N+]([O-])=C/c1cc(O)c(O)c(O)c1" ?
A: 29

Q: What do you have for "CC(C)(C)/[N+]([O-])=C/c1ccccc1" ?
A: 10

Q: What do you have for "CCOP(=O)(OCC)C(C)(C)/[N+]([O-])=C/c1ccc(O)c(O)c1" ?
A: 28

Q: What do you have for "CCOP(=O)(OCC)C(C)(C)/[N+]([O-])=C/c1ccccc1" ?
A: 19

Q: What do you have for "CCOP(=O)(OCC)C(C)(C)/[N+]([O-])=C/c1cc(O)cc(O)c1" ?
A: 23

Q: What do you have for "CCOP(=O)(OCC)C(C)(C)/[N+]([O-])=C/c1cccc(O)c1" ?
A: 26

Q: What do you have for "CCOP(=O)(OCC)C(C)(C)/[N+]([O-])=C/c1ccc(O)cc1" ?
A: 18

Q: What do you have for "CCOP(=O)(OCC)C(C)(C)/[N+]([O-])=C/c1ccccc1[N+](=O)[O-]" ?
A: 54

# credit: ChEMBL document CHEMBL3822454
